system: Staphylococcus aureus strains isolated from control group; test: microbe, parasite or virus in culture; conditions: 18 h
property.label: MIC90

Recorded results for 3 compounds are shown here.
Quick one: MIC90 for CN(C)[C@@H]1C(O)=C(C(N)=O)C(=O)[C@@]2(O)C(O)=C3C(=O)c4c(O)cccc4[C@@](C)(O)[C@H]3C[C@@H]12 ?
32 µg/mL

How about this compound: CCC[C@@H]1C[C@@H](C(=O)N[C@@H]([C@H]2O[C@H](SC)[C@H](O)[C@@H](O)[C@H]2O)[C@@H](C)O)N(C)C1
> 512 µg/mL

Continue with C/C(=C\C(=O)OCCCCCCCCC(=O)O)C[C@@H]1OC[C@H](C[C@@H]2O[C@H]2[C@@H](C)[C@H](C)O)[C@@H](O)[C@H]1O
32 µg/mL

Next item in the queue.
I have this compound here, CC(=O)NC[C@H]1CN(c2ccc(N3CCOCC3)c(F)c2)C(=O)O1 , and I need its recorded MIC90.
4 µg/mL

Source of measurements: paper PMC5872235
